# assay: Half life in phosphate buffer at pH 6.5 at 37 degC by LC/MS analysis
# Format: physicochemical
measure: half-life (h)
Please reply with the bare figure in h and do not write the unit itself.

half-life recorded for this compound, COC(=O)[C@H](N)Cc1ccc(O[P@]2(=O)CO[C@@H](Cn3ccc(N)nc3=O)CO2)cc1 , is 1.52

half-life recorded for this compound, CC(C)(C)NC(=O)[C@H](N)Cc1ccc(O[P@@]2(=O)CO[C@@H](Cn3ccc(N)nc3=O)CO2)cc1 , is 28.9

compound COC(=O)[C@H](N)Cc1ccc(O[P@@]2(=O)CO[C@@H](Cn3ccc(N)nc3=O)CO2)cc1 , half-life observed: 6.42

Lab note: COC(=O)[C@@H](N)Cc1ccc(O[P@@]2(=O)CO[C@@H](Cn3ccc(N)nc3=O)CO2)cc1 gave half-life of 4.27

Per the record, COC(=O)[C@@H](N)Cc1ccc(O[P@]2(=O)CO[C@@H](Cn3ccc(N)nc3=O)CO2)cc1 has half-life of 0.933

Lab note: COC(=O)[C@@H](N)Cc1ccc(O[P@]2(=O)CO[C@@H](Cn3cnc4c(N)ncnc43)CO2)cc1 gave half-life of 0.917

For this compound ( CC(C)CNC(=O)[C@@H](N)Cc1ccc(O[P@@]2(=O)CO[C@@H](Cn3cnc4c(N)ncnc43)CO2)cc1 ), measured half-life is 12.8

Record COC(=O)[C@H](Cc1ccc(O[P@]2(=O)CO[C@@H](Cn3cnc4c(N)ncnc43)CO2)cc1)NC(=O)[C@@H](N)C(C)C . Reported half-life: 1.58

----------
# System: Human betaherpesvirus 5
# assay: Antiviral activity against HCMV Towne infected in HFF cells incubated for 10 days by plaque reduction assay
# Assay type: functional, organism-based
# condition.notes: hff
So I've got a bunch of compounds here, and I need their pIC50 values.
// pIC50 is dimensionless: -log10 of concentration (M)

The measured pIC50 that CC(C)CNC(=O)[C@@H](N)Cc1ccc(OP2(=O)CO[C@@H](Cn3cnc4c(N)ncnc43)CO2)cc1 (mixture of isomers; form 3) showed for Human betaherpesvirus 5 is 6.26

Lab entry: Human betaherpesvirus 5 assay, compound CC(C)OC(=O)[C@@H](N)Cc1ccc(OP2(=O)CO[C@@H](Cn3ccc(N)nc3=O)CO2)cc1 (mixture of isomers; form 2) , pIC50 = 6.66

Measured pIC50 for this entry CC(C)CNC(=O)[C@@H](N)Cc1ccc(OP2(=O)CO[C@@H](Cn3cnc4c(N)ncnc43)CO2)cc1.Cl (mixture of isomers; form 2) on Human betaherpesvirus 5: 5.89

Observed pIC50 on Human betaherpesvirus 5, entry CC(C)CNC(=O)[C@@H](N)Cc1ccc(OP2(=O)CO[C@@H](Cn3cnc4c(N)ncnc43)CO2)cc1 (mixture of isomers; form 1) , equals 6.52

----------
# Tested on: Vaccinia virus
# assay: Antiviral activity against Vaccinia virus Copenhagen infected in HFF cells incubated for 3 days by plaque reduction assay
# Format: functional, organism-based, Orthopoxvirus vaccinia
# condition.notes: Orthopoxvirus vaccinia, Copenhagen, HFF, 72 h
measure: pIC50
The read-out pIC50 is expressed as -log10 of concentration in moles per litre.

Kindly note the recorded pIC50 for Nc1ncnc2c1ncn2C[C@@H](CO)OCP(=O)(O)O , which is 5.70

Entry CC(C)CNC(=O)[C@@H](N)Cc1ccc(OP(=O)(O)CO[C@H](CO)Cn2cnc3c(N)ncnc32)cc1 — recorded pIC50 = 6.30

The compound COC(=O)[C@H](Cc1ccc(OP2(=O)CO[C@@H](Cn3ccc(N)nc3=O)CO2)cc1)NC(=O)[C@@H](N)C(C)C (mixture of isomers) showed pIC50 equal to 4.70

// pIC50 value for COC(=O)[C@H](N)Cc1ccc(OP2(=O)CO[C@@H](Cn3ccc(N)nc3=O)CO2)cc1 (mixture of isomers) : 4.60

For COC(=O)[C@@H](N)Cc1ccc(OP2(=O)CO[C@@H](Cn3ccc(N)nc3=O)CO2)cc1 (mixture of isomers) the compound record lists pIC50 as 5.40

Consider COC(=O)[C@@H](N)Cc1ccc(OP2(=O)CO[C@@H](Cn3cnc4c(N)ncnc43)CO2)cc1 (mixture of isomers; form 1) . Its measured pIC50 is 5.52

GET /value?item= CC(C)(C)NC(=O)[C@H](N)Cc1ccc(OP2(=O)CO[C@@H](Cn3ccc(N)nc3=O)CO2)cc1 (mixture of isomers) &field=pIC50 returns 5.00

Nc1ncnc2c1ncn2C[C@H]1COP(=O)(O)CO1 has a reported pIC50 of 6.00

The recorded pIC50 for entry COC(=O)[C@H](Cc1ccc(OP2(=O)CO[C@@H](Cn3cnc4c(N)ncnc43)CO2)cc1)NC(=O)[C@@H](N)C(C)C (mixture of isomers) equals 5.40
